Molecular target: P-gp (Homo sapiens, UniProt P08183)
Sequence (P08183 whole entry): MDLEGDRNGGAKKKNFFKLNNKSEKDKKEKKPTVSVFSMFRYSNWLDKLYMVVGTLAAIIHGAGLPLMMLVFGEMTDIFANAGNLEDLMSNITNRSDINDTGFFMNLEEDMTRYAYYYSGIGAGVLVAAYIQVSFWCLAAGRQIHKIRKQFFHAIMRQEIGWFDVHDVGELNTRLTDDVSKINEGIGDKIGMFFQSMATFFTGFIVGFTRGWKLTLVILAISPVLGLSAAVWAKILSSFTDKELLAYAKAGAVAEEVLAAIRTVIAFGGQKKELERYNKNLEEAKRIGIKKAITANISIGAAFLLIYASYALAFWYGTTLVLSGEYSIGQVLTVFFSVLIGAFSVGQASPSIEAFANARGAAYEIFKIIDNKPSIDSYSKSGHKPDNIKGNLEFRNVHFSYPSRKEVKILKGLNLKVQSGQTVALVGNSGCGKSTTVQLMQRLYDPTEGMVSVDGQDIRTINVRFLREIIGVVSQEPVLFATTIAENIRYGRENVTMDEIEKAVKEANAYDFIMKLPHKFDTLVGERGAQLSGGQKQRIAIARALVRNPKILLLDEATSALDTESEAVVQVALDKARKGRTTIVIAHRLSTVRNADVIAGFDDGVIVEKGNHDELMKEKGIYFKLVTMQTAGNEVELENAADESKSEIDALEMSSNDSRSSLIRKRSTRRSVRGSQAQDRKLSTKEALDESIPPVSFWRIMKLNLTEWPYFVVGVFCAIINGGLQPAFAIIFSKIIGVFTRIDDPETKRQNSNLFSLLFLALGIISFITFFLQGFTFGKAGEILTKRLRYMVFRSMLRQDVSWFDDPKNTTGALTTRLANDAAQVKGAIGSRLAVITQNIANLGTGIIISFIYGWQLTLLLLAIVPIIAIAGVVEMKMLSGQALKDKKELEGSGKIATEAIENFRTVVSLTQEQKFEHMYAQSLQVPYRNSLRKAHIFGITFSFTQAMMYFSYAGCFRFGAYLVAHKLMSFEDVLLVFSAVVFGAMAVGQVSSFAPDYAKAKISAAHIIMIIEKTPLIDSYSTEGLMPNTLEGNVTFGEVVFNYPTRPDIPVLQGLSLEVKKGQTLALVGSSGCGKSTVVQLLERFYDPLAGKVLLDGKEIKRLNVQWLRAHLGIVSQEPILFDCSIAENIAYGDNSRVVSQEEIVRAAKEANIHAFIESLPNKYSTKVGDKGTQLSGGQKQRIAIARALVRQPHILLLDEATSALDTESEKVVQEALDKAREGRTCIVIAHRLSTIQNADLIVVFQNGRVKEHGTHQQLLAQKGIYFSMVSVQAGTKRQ
Experiment: in vitro
Conditions: Caco-2, pH 7.4, Papp B-A (Digoxin)
observable: Papp B→A at 2 h, 10 µM (×10⁻⁶ cm/s)
Answers are plain numbers, in ×10⁻⁶ cm/s.

Qu. Respond only with Papp B→A at 2 h, 10 µM recorded for C[C@H]1O[C@@H](O[C@H]2[C@@H](O)C[C@H](O[C@H]3[C@@H](O)C[C@H](O[C@H]4CC[C@@]5(C)[C@H](CC[C@@H]6[C@@H]5C[C@@H](O)[C@]5(C)[C@@H](C7=CC(=O)OC7)CC[C@]65O)C4)O[C@@H]3C)O[C@@H]2C)C[C@H](O)[C@@H]1O
Ans. 8.24
